All values here come from ChEMBL document CHEMBL1129455.

Tested on: Cancer cell lines
Assay: The concentration to cause 50% cancer cell lethality and the value is the mean value which was obtained from 60 cancer cell line assay
Type: functional
Entries whose LC50 is below 20 µM take True; entries at or above 20 µM take False.

>  <compound>
COC1=C(NC(C)=O)C(=O)c2nc3n(c2C1=O)CCC3OC(C)=O (stereo unspecified)

>  <system_under_test>
Cancer cell lines

>  <assigned_label>
False

$$$$
>  <compound>
CC(=O)NC1=C(C)C(=O)c2c(nc3n2CCC3OC(C)=O)C1=O (stereo unspecified)

>  <system_under_test>
Cancer cell lines

>  <assigned_label>
True

$$$$
>  <compound>
CC1=C(N2CC2)C(=O)c2nc3n(c2C1=O)CCC3

>  <system_under_test>
Cancer cell lines

>  <assigned_label>
True

$$$$
>  <compound>
O=C1C(N2CC2)=CC(=O)c2c1nc1n2CCC1

>  <system_under_test>
Cancer cell lines

>  <assigned_label>
True

$$$$
>  <compound>
O=C1C=C(N2CC2)C(=O)c2c1nc1n2CCC1

>  <system_under_test>
Cancer cell lines

>  <assigned_label>
False

$$$$
>  <compound>
CC(=O)OC1CCn2c1nc1c2C(=O)C=C(N2CC2)C1=O (stereo unspecified)

>  <system_under_test>
Cancer cell lines

>  <assigned_label>
True

$$$$
